System: oxazolone-induced ear swelling (MOCH) in albino male CD-1 mice
Assay: mouse oxazolone-induced contact hypersensitization (MOCH) ear swelling
Format: in vivo
Set-up: concentration or dose not given beside the values
Settings: mouse, in vivo
# t = % Inhibition MOCH below 40% (exclusive); f = % Inhibition MOCH at/above 40%

Ask | Lab note: % Inhibition MOCH threshold 40%. Does this compound come in strictly under it? O=C(Cc1cccc(C(F)(F)F)c1)NCC(c1ccc2c(c1)OCO2)C(c1ccccc1)c1ccccc1 (stereo not shown)
Reply | t

Ask | Below 40% on % Inhibition MOCH? Entry O=C(Cc1cccs1)NCC(c1ccc(C(F)(F)F)cc1)C(c1ccccc1)c1ccccc1 (stereo not shown)
Reply | t

Ask | Identify whether the compound CSc1ccc(CC(=O)NCC(c2ccc(C(F)(F)F)cc2)C(c2ccccc2)c2ccccc2)cc1 (stereo not shown) records % Inhibition MOCH below 40%.
Reply | t

Ask | # strict comparison: is reported % Inhibition MOCH < 40%? input = O=C(NCC(c1ccc2c(c1)OCO2)C(c1ccccc1)c1ccccc1)c1ccc(F)cc1F (stereo not shown)
Reply | f

Ask | Given O=C(Cc1cc(C(F)(F)F)cc(C(F)(F)F)c1)NCC(c1ccc2c(c1)OCO2)C(c1ccccc1)c1ccccc1 (stereo not shown) , is recorded % Inhibition MOCH strictly lower than 40%?
Reply | f

Ask | Given the entry O=C(Cc1ccc(Cl)c(Cl)c1)NCC(c1ccc(C(F)(F)F)cc1)C(c1ccccc1)c1ccccc1 (stereo not shown) , would its reported % Inhibition MOCH be below 40%?
Reply | t

Ask | Below 40% on % Inhibition MOCH? Entry O=C(NCC(c1ccc2c(c1)OCO2)C(c1ccccc1)c1ccccc1)c1cccc([N+](=O)[O-])c1 (stereo not shown)
Reply | t
